Target: Calcium-activated potassium channel subunit alpha-1 (Homo sapiens, UniProt Q12791)
Sequence (Q12791 whole entry): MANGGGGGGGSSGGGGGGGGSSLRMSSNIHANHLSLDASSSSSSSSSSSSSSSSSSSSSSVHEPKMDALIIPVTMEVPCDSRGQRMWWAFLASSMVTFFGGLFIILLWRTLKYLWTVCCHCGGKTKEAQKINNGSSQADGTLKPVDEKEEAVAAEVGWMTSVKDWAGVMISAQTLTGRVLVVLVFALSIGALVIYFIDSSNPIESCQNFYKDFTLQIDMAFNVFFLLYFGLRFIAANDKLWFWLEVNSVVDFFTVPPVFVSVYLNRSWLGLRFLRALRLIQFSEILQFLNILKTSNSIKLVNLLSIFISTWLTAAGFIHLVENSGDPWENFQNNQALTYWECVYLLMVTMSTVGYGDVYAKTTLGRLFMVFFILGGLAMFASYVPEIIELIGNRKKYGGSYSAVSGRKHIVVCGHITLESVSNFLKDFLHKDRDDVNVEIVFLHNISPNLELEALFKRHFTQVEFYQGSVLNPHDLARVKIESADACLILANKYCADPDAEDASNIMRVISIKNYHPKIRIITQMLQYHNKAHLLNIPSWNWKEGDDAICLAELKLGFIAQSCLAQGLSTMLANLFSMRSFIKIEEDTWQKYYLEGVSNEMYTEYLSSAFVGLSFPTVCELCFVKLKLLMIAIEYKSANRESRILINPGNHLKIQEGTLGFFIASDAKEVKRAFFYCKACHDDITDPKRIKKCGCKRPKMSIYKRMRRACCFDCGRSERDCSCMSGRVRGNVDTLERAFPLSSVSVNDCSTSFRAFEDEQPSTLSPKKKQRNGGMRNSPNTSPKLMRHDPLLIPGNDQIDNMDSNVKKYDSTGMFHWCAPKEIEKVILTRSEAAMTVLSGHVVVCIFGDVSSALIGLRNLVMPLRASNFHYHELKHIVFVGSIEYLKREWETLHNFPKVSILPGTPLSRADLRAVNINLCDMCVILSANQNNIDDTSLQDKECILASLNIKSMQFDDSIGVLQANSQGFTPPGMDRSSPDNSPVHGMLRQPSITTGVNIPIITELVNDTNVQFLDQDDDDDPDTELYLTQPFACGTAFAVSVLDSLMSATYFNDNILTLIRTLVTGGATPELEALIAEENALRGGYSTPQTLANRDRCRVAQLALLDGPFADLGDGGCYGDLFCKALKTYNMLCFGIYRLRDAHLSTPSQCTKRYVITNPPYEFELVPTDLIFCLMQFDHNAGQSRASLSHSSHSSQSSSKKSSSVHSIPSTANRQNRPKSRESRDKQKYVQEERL
Experiment: Inhibition of Maxi-K (unknown origin) expressed in HEK293 cells measured by thallium flux assay
Format: cell-based

{"columns": ["STRUCTURE_SMILES", "TGT", "IC50"],
 "data": [
  ["COc1ccc(Cl)cc1NC(=O)CN1CCN(S(=O)(=O)N2CCC(C)CC2)C[C@H]1C", "Calcium-activated potassium channel subunit alpha-1 (Homo sapiens, UniProt Q12791)", "> 10 µM"],
  ["COc1ccc(C(F)(F)F)cc1NC(=O)CN1CCN(S(=O)(=O)N2CCC(C)CC2)CC1", "Calcium-activated potassium channel subunit alpha-1 (Homo sapiens, UniProt Q12791)", "> 10 µM"]
]}
